# System: SR leukemia
# assay.remarks: NCI tumour cell line growth inhibition, 48 h
outcome.measure: TGI

For orientation, consider the following solved cases.
compound=O[C@@H]1C[C@@H]2N[C@@](O)(C[C@@H]2O)[C@H]1O outcome_measure=TGI reported_result="> 100 µM"
compound=CNC(=S)N/N=C/c1cccc(C)n1 outcome_measure=TGI reported_result="> 78.1 µM"
compound="COc1ccc2c3c1OC1c4[nH]c5ccccc5c4CC4(O)C(C2)N(C)CCC314 (configuration not stated)" outcome_measure=TGI reported_result="37 µM"
compound="COc1cccc(C2c3cc4c(cc3OC(O)(CO)C2C(=O)O)OCO4)c1 (configuration not stated) (tested in a mixture with another compound)" outcome_measure=TGI reported_result="> 100 µM"
compound="COC(=O)C1C2C=CC(C2)N1[C@@H](C)c1ccccc1 (some centres not stated)" outcome_measure=TGI reported_result="> 100 µM"
compound=O=C1CCCCc2cccc(O)c21 outcome_measure=TGI reported_result="> 100 µM"
compound="COc1c(N2CCN(CN3C(=O)C(=Nc4ccc(S(=O)(=O)Nc5ncccn5)cc4)c4ccccc43)C(C)C2)c(F)cc2c(=O)c(C(=O)O)cn(C3CC3)c12 (configuration not stated)" outcome_measure=TGI reported_result="> 50 µM"
compound=O=S1C2=C(Cc3ccccc3)C(Cc3ccccc3)=C1CCc1cccc(c1)CC2 outcome_measure=TGI reported_result="90.2 µM"

Query :: So what does the record say about TGI for C=CC[C@H](C)CCC(=O)N1[C@H]2CC3CC[C@@]2(CS1(=O)=O)C3(C)C ?
Result :: > 100 µM

Query :: // next record Cc1cccc(NC(=S)N=Nc2c(O)[nH]c3ccccc23)c1
Result :: > 100 µM

Query :: // next record CCCCN(Cc1ccc(F)cc1)c1ccc(CO)c(Cl)c1
Result :: 34.7 µM

Query :: // next record CN(C)CCCN1CCc2c([nH]c3ccccc23)C1c1cccnc1 (configuration not stated)
Result :: > 100 µM

Query :: // next record CC1C[C@]2(C)C(=O)N(c3ccccc3)C(=N)[C@@H]2N(C)c2ccccc21 (some centres not stated)
Result :: > 100 µM

Query :: // next record Cn1ccnc1C(=O)/C=C/c1ccc(CC(=O)Nc2ccccc2)cc1
Result :: 18.9 µM

Query :: // next record C[C@H]1[C@H](C)CC[C@]2(C(=O)O)CC[C@]3(C)C(=CC[C@@H]4[C@@]5(C)C/C(=C/c6cccnc6)[C@H](O)C(C)(C)[C@@H]5CC[C@]43C)[C@H]12
Result :: 82.8 µM
